assay-procedure: Evaluation of Caco-2 membrane permeability
Format: in vitro ADME
experimental-setup: human, Apical FaSSIF/HBSS pH 6.0 to Basal HBSS 4% BSA pH 7.4, 180 minutes, after 18 to 24 hours preincubation, read-out: Caco2 (Papp)
Bridge positions count the residues as written; N and C are the ends. Square brackets hold non-standard residues; d marks the D form. Peptide text beside a SMILES is read from it. * marks the point of attachment. Bta = N[C@@H](Cc1csc2ccccc12)C(=O)O; NMeF = CN[C@@H](Cc1ccccc1)C(=O)O; NMeL = CN[C@@H](CC(C)C)C(=O)O; NMeV = CN[C@H](C(=O)O)C(C)C; NMeAbu = CC[C@H](NC)C(=O)O; NMeA = CN[C@@H](C)C(=O)O; Piperidide = C1CCN(*)CC1; Sar = CNCC(=O)O; tBu = CC(C)(C)*
For each of the molecules below, state its Papp A→B at 180 min.
Reply with just the number (in ×10⁻⁶ cm/s).

QUERY: Any idea what its Papp A→B at 180 min is? The molecule is CC(C)C[C@@H]1NC(=O)[C@H](Cc2ccccc2)N(C)C(=O)[C@@H](C(C)C)NC(=O)C[C@@H](C(=O)N2CCCCC2)NC(=O)[C@H](C(C)C)N(C)C(=O)[C@H](Cc2ccccc2)N(C)C(=O)[C@H](COC(C)(C)C)NC(=O)[C@H](CC(C)C)N(C)C(=O)CN(C)C(=O)[C@H]([C@@H](C)O)NC(=O)[C@H](CC(C)C)N(C)C1=O [Compound 3] ([dV][NMeF]L[NMeL]T[Sar][NMeL]S(tBu)[NMeF][NMeV]D-Piperidide; lactam N-11)
RESULT: 4.07

QUERY: Try this molecule next: CC[C@H]1C(=O)N[C@@H](COC(C)(C)C)C(=O)N(C)[C@@H](Cc2ccccc2)C(=O)N(C)[C@@H](C)C(=O)N[C@H](C(=O)N2CCCCC2)CC(=O)N[C@H](CC(C)C)C(=O)N(C)[C@@H](CC(C)C)C(=O)N[C@@H](Cc2csc3ccccc23)C(=O)N(C)[C@@H](CC(C)C)C(=O)N[C@@H]([C@@H](C)O)C(=O)N(C)CC(=O)N1C [Compound 5] ([dL][NMeL][Bta][NMeL]T[Sar][NMeAbu]S(tBu)[NMeF][NMeA]D-Piperidide; lactam N-11)
RESULT: 1.42

All figures here come from patent US20260273107A1.
